Source listed as paper PMC5540273.

Tested on: DRAK2;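 further: KINOMEscan kinase panel screen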
Construct: gene STK17B
Settings: concentration: 1 μM, replicates: in singlicate; n = 1
VALUE_KIND: %Inh (%)
Quick note: give the figure in %, leave out the unit.

The examples below pair each entry with its known result.
molecule="NS(=O)(=O)c1cccc(-c2ccc3ncc(N4CCOCC4)nc3c2)c1 [GSK1535721]" unit_of_measurement=% numeric_value=0
molecule="O=C(NCCNc1ccnc(Nc2ccc(F)cc2)n1)c1cc2ccccc2s1 [GSK1379874]" unit_of_measurement=% numeric_value=33
molecule=O=C(NOCC1CC1)c1ccc(F)c(F)c1Nc1ccc(I)cc1Cl unit_of_measurement=% numeric_value=21

**Q:** Entry under review: Cc1nnc(-c2ccc3ncc(-c4ccc(S(C)=O)cc4)n3c2)o1 (stereo not shown) . Reported %Inh?
**A:** 7

**Q:** Try this molecule next: Nc1nccc(-c2c(-c3ccc(F)cc3)ncn2C2CCN(CC(F)(F)F)CC2)n1 [SB-236560]
**A:** 1
